Listed next: entries and their corresponding fold change.
# Protocol text: sensitizers of A549 cells to miR-34 induction, primary screen, imaging, A549 dox-inducible miR-34, nuclei and caspase counts (AID 1347080)
# Run conditions: A549 miR-34 inducible, Hoechst nuclei count, 48 h; measured here: relative caspase fold change +Dox/-Dox
Parameter measured: fold change

INSERT INTO measurements (compound, value_measured) VALUES
  ('c1cc2ccsc2c(N2CCNCC2)n1', 0.656),
  ('CN1C[C@H](CO)C=C2c3cccc4[nH]cc(c34)C[C@H]21', 1.6),
  ('C[C@]12CCC(O)C[C@@H]1CC[C@@H]1[C@H]2CC[C@]2(C)C(=O)CC[C@@H]12 (stereo partly specified)', 1.48),
  ('CC1=CC(=O)C2=C(C)C[C@H](O)[C@@H]3[C@H](OC(=O)[C@H]3C)[C@@H]12', 1.6),
  ('CC1OC(=O)C(C(C)C)NC(=O)C(C(C)C)OC(=O)C(C(C)C)NC(=O)C(C)OC(=O)C(C(C)C)NC(=O)C(C(C)C)OC(=O)C(C(C)C)NC(=O)C(C)OC(=O)C(C(C)C)NC(=O)C(C(C)C)OC(=O)C(C(C)C)NC1=O (stereo unspecified)', 1.28),
  ('CN1C2CCC1CC(OC(c1ccc(F)cc1)c1ccc(F)cc1)C2 (stereo unspecified)', 1.19),
  ('C=CCN1CC[C@]23CCCCC2[C@H]1Cc1ccc(O)cc13 (stereo partly specified)', 0.636),
  ('O[C@H]1[C@H]2[C@H](O)CCCN2C[C@H]1O', 1.17),
  ('NCCc1ccc(S(N)(=O)=O)cc1', 0.315),
  ('O=C(NC(=O)c1c(F)cccc1F)Nc1cc(Cl)c(OC(F)(F)C(F)C(F)(F)F)cc1Cl (stereo unspecified)', 0.7),
  ('C[N+](C)(C)CC(=O)O', 1.89),
  ('C[C@]12CCC3[C@@H](CC[C@@]45O[C@@H]4C(O)=C(C#N)C[C@]35C)C1CC[C@@H]2O (stereo partly specified)', 0.592),
  ('CCN1C[C@]2(C)CC[C@H](OC)[C@@]34C1[C@]1(OCO[C@@]15C[C@H](OC)[C@H]1C[C@]3(O)[C@@H]5[C@H]1OC)[C@@H](OC(C)=O)[C@H]24', 0.675),
  ('COc1ccccc1N1CCNCC1', 1.58),
  ('CC[C@]1(O)CCC2C3CCC4=CCCCC4C3CC[C@@]21C (stereo partly specified)', 1.28),
  ('C#CCN[C@H](C)Cc1ccccc1', 1.51),
  ('NCCc1cc(O)c(O)cc1O', 0.786),
  ('NC(CC(=O)N1CCn2c(nnc2C(F)(F)F)C1)Cc1cc(F)c(F)cc1F (stereo unspecified)', 0.671),
  ('CN1C(CC(O)c2ccccc2)CCCC1CC(O)c1ccccc1 (stereo unspecified)', 1.06),
  ('COc1ccc2c3c([nH]c2c1)C(C)=NCC3', 1.3),
  ('C[C@@H]1O[C@@H](O[C@H]2C[C@@H](O)[C@]3(CO)[C@@H]4C(CC[C@]3(O)C2)[C@@]2(O)CC[C@H](C3COC(=O)C3)[C@@]2(C)C[C@H]4O)[C@H](O)[C@H](O)[C@H]1O (stereo partly specified)', 1.72),
  ('CCCCC/C=C\C/C=C\C/C=C\C/C=C\CCCC(=O)Nc1ccc([N+](=O)[O-])cc1', 1.21),
  ('C[C@@H]1O[C@H](C[N+](C)(C)C)C[C@H]1O', 1.87),
  ('CCCn1c(=O)c2[nH]c(C3CCCC3)nc2n(CCCOC(=O)c2ccc(S(=O)(=O)F)cc2)c1=O', 1.12),
  ('CCNC(=O)CC1N=C(c2ccc(Cl)cc2)c2cc(OC)ccc2-n2c(C)nnc21 (stereo unspecified)', 0.522),
  ('CC(C)CC(NP(=O)(O)O[C@@H]1O[C@@H](C)[C@H](O)[C@@H](O)[C@H]1O)C(=O)NC(Cc1c[nH]c2ccccc12)C(=O)O (stereo partly specified)', 0.942),
  ('C=C(C)[C@@H]1CCC(C)=C[C@H]1c1c(O)cc(O)cc1CCCCC', 1.35),
  ('COP(=S)(OC)Oc1cc(Cl)c(Cl)cc1Cl', 3.75),
  ('CCCCC/C=C\C=C\[C@H](CCCCCCCC(=O)O)OO', 1.23),
  ('CC(C)CC(N)C1(c2ccc(Cl)cc2)CCC1 (stereo unspecified)', 1.15),
  ('C=CCN1CC[C@]2(C)c3cc(O)ccc3CC1[C@@H]2C', 0.641),
  ('COc1ccc(CC2c3cc(OC)c(OC)cc3CCN2C)cc1OC (stereo unspecified)', 1.5),
  ('CC(=O)OCC1=C(C(=O)[O-])N2C(=O)[C@@H](NC(=O)CCC[C@@H](N)C(=O)[O-])[C@H]2SC1.[Zn+2]', 1.44),
  ('Cn1cnc(CCN)c1', 1.18),
  ('CCCCCCCCCCNCCC (tested in a mixture with another compound)', 1.32),
  ('[N-]=[N+]=CC(=O)OCC(N)C(=O)O (stereo unspecified)', 1.38),
  ('C[N+]1([O-])[C@@H]2CC(OC(=O)[C@H](CO)c3ccccc3)C[C@H]1[C@@H]1O[C@@H]12 (stereo partly specified)', 1.03),
  ('CC[C@H]1CN2CCC1C[C@H]2[C@H](O)c1ccnc2ccc(OC)cc12 (stereo partly specified)', 1.17),
  ('COc1cc(/C=C\c2ccc(OC)c(O)c2)cc(OC)c1', 0.882),
  ('C=CCN1CC[C@]23c4c5ccc(O)c4O[C@H]2C(=O)CC[C@@]3(O)C1C5', 1.73),
  ('CC(=O)NBr', 2.31);

###

Listed next: entries and their corresponding growth inhibition.
# Protocol text: inhibition of 3D7 malaria parasite growth – strain 3D7 (AID 2306);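 note: 0% = DMSO wells and 100% = chloroquine plus artemisinin control wells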
# Run conditions: P. falciparum 3D7 erythrocytic growth, LDH absorbance, 72 h; at 2 µM; stronger effect = higher value
Parameter measured: growth inhibition (%)

INSERT INTO measurements (compound, parameter_measured, value_measured) VALUES
  ('CCOc1ccc(CN(CCc2ccc3c(c2)OCO3)Cc2cc(OC)ccc2O)cc1', 'growth inhibition', 96),
  ('Cc1[nH]c2ccc(O)cc2c1C1CCN(CC2CCC(NC(=O)/C=C/c3c(Cl)cccc3Cl)CC2)CC1 (stereo not given)', 'growth inhibition', 103),
  ('Cc1ccc(CC(C)NC[C@H](O)c2cccc(Cl)c2)cc1 (stereo not given in full)', 'growth inhibition', 96),
  ('Cc1ccc2c(C3=CCN(CCCCC4(C)C(=O)Nc5c(F)cccc54)CC3)c(C)[nH]c2c1 (stereo not given)', 'growth inhibition', 95),
  ('CCCCc1ccc2[nH]cc(C3=CCN(C)CC3)c2c1Br', 'growth inhibition', 94),
  ('COc1cc2nc(N(C)C3CCN(Cc4ccccc4)CC3)nc(N)c2cc1OC', 'growth inhibition', 99),
  ('CCCc1ccc2c(c1O)CCC(N(CCC)CCC)C2 (stereo not given)', 'growth inhibition', 90),
  ('O=C1NCN(c2ccc(O)cc2)C12CCN(CCCC(c1ccc(F)cc1)c1ccc(F)cc1)CC2', 'growth inhibition', 94),
  ('CCOC(=O)c1ccc(CC(C)NCC(O)c2cccc(C(F)(F)F)c2)cc1 (stereo not given)', 'growth inhibition', 100),
  ('CCC1CN2CCc3cc(OC)c(OC)cc3C2CC1CC1NCCc2c1[nH]c1ccc(O)cc21 (stereo not given)', 'growth inhibition', 99),
  ('COc1ccc(N(c2nc(-c3cc(Cl)ccc3Cl)cs2)C2CCNCC2)cc1', 'growth inhibition', 91),
  ('Oc1ccccc1CNCC(O)c1cccc(C(F)(F)F)c1 (stereo not given)', 'growth inhibition', 100),
  ('O=C(NC1CCC(CN2CCC(c3c[nH]c4ccccc34)CC2)CC1)c1cc(-c2ccccc2)c(C(F)(F)F)s1 (stereo not given)', 'growth inhibition', 100),
  ('O=C(NC1CCC(CN2CCC(c3c[nH]c4ccccc34)CC2)CC1)C1(O)c2ccccc2-c2ccccc21 (stereo not given)', 'growth inhibition', 85),
  ('Cc1cccc(C(=O)Nc2ccnc(N(C)C3CCN(CC(C)C)CC3)c2)c1', 'growth inhibition', 95),
  ('CN(C)c1cccc(NC(=O)N[C@H]2N=C(c3ccccc3)c3ccccc3N(CC(=O)N3CCCC3)C2=O)c1', 'growth inhibition', 98),
  ('O=C(/C=C/c1ccsc1)NC1CCC(CN2CCC(c3c[nH]c4ccccc34)CC2)CC1 (stereo not given)', 'growth inhibition', 82),
  ('COC(=O)c1ccc(CC(C)NCC(O)c2cccc(Cl)c2Cl)cc1 (stereo not given)', 'growth inhibition', 98),
  ('O=C(C=Cc1ccccc1C(F)(F)F)NC1CCC(CN2CCC(c3c[nH]c4ccccc34)CC2)CC1 (stereo not given)', 'growth inhibition', 102),
  ('CC1CN=C(Nc2ncc(Cl)cc2Cl)N1 (stereo not given)', 'growth inhibition', 99);
